- TARGET_OR_SYSTEM: Dual specificity protein phosphatase 3 (Homo sapiens) (UniProt P51452)
- Sequence (P51452 whole entry, looked up): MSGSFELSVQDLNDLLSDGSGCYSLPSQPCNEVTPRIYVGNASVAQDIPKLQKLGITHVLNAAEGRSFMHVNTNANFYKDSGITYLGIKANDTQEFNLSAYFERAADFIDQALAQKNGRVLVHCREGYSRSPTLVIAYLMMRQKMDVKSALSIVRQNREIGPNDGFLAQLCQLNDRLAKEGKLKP
- PROCEDURE_DETAILS: VHR1 phosphatase inhibitors, primary screen, biochemical, absorbance, uHTS (AID 1654)
- ASSAY_SETUP: recombinant VHR phosphatase, pNPP absorbance, at 13.3 µM, stronger effect = higher value
Screen size: about 290,000 compounds; about 1,500 (0.52%) were called active. This excerpt belongs to a sample that is enriched for actives.
QUANTITY_MEASURED: inhibition (%)
One number for each entry, in %.

CCN(CC)CCCNC(=O)Cn1cnc2sc(C)c(S(=O)(=O)N3CCN(c4ncccn4)CC3)c2c1=O; 7.7
O=C1C(Cl)=C(N2CCOCC2)C(=O)N1c1ccccc1; 29.6
Cc1noc(C)c1CCC(=O)N1CCCC(CO)(Cc2ccccc2)C1 (stereo not drawn); 5.7

For each listed entry, give its inhibition.
1. Cc1c(C(=O)NC(C)C2CC3CCC2C3)cccc1[N+](=O)[O-] (stereo not drawn)
2. CC(=O)N1c2ccc(S(=O)(=O)N3CCCC(C(=O)NCc4ccc(Cl)cc4)C3)cc2CC1C (stereo not drawn)
3. CCOc1cc(C)ccc1OCc1nnc(SCC(=O)Nc2cccc(C(=O)O)c2)n1-c1ccccc1

Reply text:
54.4
52.7
-8.4

For each listed entry, give its inhibition.
1. COc1ccc(N2CCN(C(=O)c3ccc(N4CCCCS4(=O)=O)cc3)CC2)cc1
2. CCOC(=O)CC1COCCN1C(=O)c1cc(COc2ccc(F)c(F)c2)on1 (stereo not drawn)
3. CCOC(=O)c1sc2nc(C)[nH]c(=O)c2c1C
4. N=c1oc2ccccc2cc1C(=O)NCc1ccccc1
5. CC(C)CC(=O)NC(=S)NNC(=O)c1cccc([N+](=O)[O-])c1
6. Cc1cc(C)n2nc(C(=O)NC(C)(C)C)nc2n1
7. Nc1nonc1-n1nnc(C(=O)N/N=C\c2ccncc2)c1CN1CCCCC1
8. O=C1Nc2cc(C(=O)N3CCN(c4ccc(F)cc4)CC3)ccc2NC1CSCc1cccc(F)c1 (stereo not drawn)

Reply text:
1. 21.1
2. -31.1
3. 21.7
4. -2.5
5. -16.7
6. 38.4
7. 13
8. -24.2

For each listed entry, give its inhibition.
1. CS(=O)(=O)C1=NN2C(=N)/C(=C\c3ccc(OCCOc4ccccc4)cc3)C(=O)N=C2S1
2. CCOc1cc(/C=C2\C(=N)N3N=C(C)SC3=NC2=O)ccc1OCCOc1ccccc1

Reply text:
1: 26.8; 2: 17.9

For each listed entry, give its inhibition.
1. O=c1[nH]cnc2c1c(-c1ccccc1)cn2-c1ccc(F)cc1
2. Cc1cc(C)n2nc(SCC(N)=O)nc2n1
3. CCOC(=O)c1cccc(NC(=O)CCc2nnc3ccc(N4CCOCC4)nn23)c1
4. O=[N+]([O-])c1cc(C(F)(F)F)ccc1NCCc1ccncc1
5. CCOc1ccc(-n2c(SCC(=O)Nc3ccc(OC)cc3)nc3sc4c(c3c2=O)CCN(C)C4)cc1

Reply text:
1: -6.9; 2: 24.2; 3: 10.4; 4: -7.6; 5: 5.3

For each listed entry, give its inhibition.
1. CC(=O)N1CCCc2cc(S(=O)(=O)N3CCCC(C(=O)NCc4ccc(Cl)cc4)C3)ccc21 (stereo not drawn)
2. CCN(C(=O)CSc1nnc(-c2ccncc2)o1)c1ccccc1

Reply text:
1. 5.3
2. 11
